biological target: rhIL-6-His (recombinant human IL-6, Val30 to Met212, C-terminal 6 His) (human, UniProt P05231 30-212); test: cell-based or functional assay
Sequence (P05231 other isoform, or with tags, fused parts or gaps limits assumed): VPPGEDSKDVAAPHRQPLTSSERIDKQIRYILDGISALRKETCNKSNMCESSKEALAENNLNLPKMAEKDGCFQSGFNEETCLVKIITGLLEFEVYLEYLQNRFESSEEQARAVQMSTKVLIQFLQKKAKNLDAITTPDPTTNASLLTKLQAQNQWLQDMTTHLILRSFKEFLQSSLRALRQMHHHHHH
Consider the following binders; for each one, report its concentration of SAA in supernatant of rhIL-6 stimulated HepG2 cells at 100 µg/mL antibody.
Answer format: numeric, ng/mL implied, no suffix.

**Q:** Look up concentration of SAA in supernatant of rhIL-6 stimulated HepG2 cells at 100 µg/mL antibody: HZ-0408c (antibody, human IgG1, kappa, V domains shown, Humanized from murine 140-4; IgG1 type antibody from 293F cells; also called L2/H3) VH: QVTLKESGPVLVKPTETLTLTCTVSGFSLSTSGMGVGWIRQPPGKALEWLAHIWWDDDKRYNSALKSRLTISKDTSKSQVVLTMTNMDPVDTATYYCARIGGLYVDYLMDYWGQGTLVTVSS VL: EIVLTQSPATLSLSPGERATLSCRASQSISDYLHWYQQKPGQAPRLLIYYASQSISGIPARFSGSGSGTDFTLTISSLEPEDFAVYYCQNGHSFPWTFGQGTKVEIKR
**A:** 12.5

**Q:** Item: Siltuximab (antibody, V domains shown) VH: EVQLVESGGKLLKPGGSLKLSCAASGFTFSSFAMSWFRQSPEKRLEWVAEISSGGSYTYYPDTVTGRFTISRDNAKNTLYLEMSSLRSEDTAMYYCARGLWGYYALDYWGQGTSVTVSS VL: QIVLIQSPAIMSASPGEKVTMTCSASSSVSYMYWYQQKPGSSPRLLIYDTSNLASGVPVRFSGSGSGTSYSLTISRMEAEDAATYYCQQWSGYPYTFGGGTKLEIK
**A:** 148

**Q:** Item: HZ-0408b (antibody, human IgG1, kappa, V domains shown, Humanized from murine 140-4; IgG1 type antibody from 293F cells; also called L1/H3) VH: QVTLKESGPVLVKPTETLTLTCTVSGFSLSTSGMGVGWIRQPPGKALEWLAHIWWDDDKRYNSALKSRLTISKDTSKSQVVLTMTNMDPVDTATYYCARIGGLYVDYLMDYWGQGTLVTVSS VL: EIVLTQSPDFQSVTPKEKVTITCRASQSISDYLHWYQQKPDQSPKLLIKYASQSISGVPSRFSGSGSGTDFTLTINSLEAEDAATYYCQNGHSFPWTFGQGTKVEIKR
**A:** -2.5
